- targetOrTestSystem: Ecdysone receptor (Aedes aegypti)
- Sequence (P49880 whole entry): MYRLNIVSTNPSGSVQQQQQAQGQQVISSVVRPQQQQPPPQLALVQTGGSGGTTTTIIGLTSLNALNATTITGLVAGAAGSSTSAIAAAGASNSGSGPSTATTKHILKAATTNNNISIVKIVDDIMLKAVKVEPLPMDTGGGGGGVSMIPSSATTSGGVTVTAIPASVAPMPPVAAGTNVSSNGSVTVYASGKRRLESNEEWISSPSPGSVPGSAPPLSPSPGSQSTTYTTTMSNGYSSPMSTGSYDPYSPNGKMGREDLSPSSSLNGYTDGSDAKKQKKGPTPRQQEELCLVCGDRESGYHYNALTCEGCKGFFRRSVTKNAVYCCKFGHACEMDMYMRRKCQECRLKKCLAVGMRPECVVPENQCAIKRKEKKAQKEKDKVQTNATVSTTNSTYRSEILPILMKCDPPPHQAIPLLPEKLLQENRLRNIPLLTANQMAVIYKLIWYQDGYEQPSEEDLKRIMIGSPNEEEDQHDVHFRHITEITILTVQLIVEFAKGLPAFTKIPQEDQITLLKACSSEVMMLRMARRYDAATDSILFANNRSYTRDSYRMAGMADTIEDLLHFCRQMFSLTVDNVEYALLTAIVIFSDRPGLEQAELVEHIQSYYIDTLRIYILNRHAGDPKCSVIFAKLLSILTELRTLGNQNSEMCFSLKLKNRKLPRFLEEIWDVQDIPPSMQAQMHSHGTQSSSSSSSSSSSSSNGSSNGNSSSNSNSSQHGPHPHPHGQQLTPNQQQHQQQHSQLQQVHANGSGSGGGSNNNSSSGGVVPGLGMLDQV
- methodNotes: Effective concentration for ecdysone-dependent transactivation in mammalian cell line expressing Aedes aegypti ecdysone receptor
Threshold 1000 nM. EC50 below it: 1.0. EC50 at it or above: 0.0.

{"columns": ["smi", "targetOrTestSystem", "assignedClass"],
 "data": [
  ["Cc1ccc(C(=O)N2c3ccc(F)cc3[C@@H](Nc3ccc(F)cc3)C[C@H]2C)cc1", "Ecdysone receptor (Aedes aegypti)", 1.0],
  ["Cc1ccc(N[C@H]2C[C@@H](C)N(C(=O)c3ccccc3)c3ccc(C)cc32)cc1", "Ecdysone receptor (Aedes aegypti)", 0.0],
  ["C[C@@H]1C[C@H](Nc2ccc(F)cc2)c2cc(F)ccc2N1C(=O)c1ccccc1C(F)(F)F", "Ecdysone receptor (Aedes aegypti)", 0.0],
  ["C[C@@H]1C[C@H](Nc2ccc(F)cc2)c2cc(F)ccc2N1C(=O)c1ccc(C(F)(F)F)cc1", "Ecdysone receptor (Aedes aegypti)", 1.0],
  ["Cc1ccc(N[C@H]2C[C@@H](C)N(C(=O)c3ccccc3F)c3ccc(C)cc32)cc1", "Ecdysone receptor (Aedes aegypti)", 0.0],
  ["COc1cccc(C(=O)N2c3ccc(C)cc3[C@@H](Nc3ccc(C)cc3)C[C@H]2C)c1", "Ecdysone receptor (Aedes aegypti)", 0.0],
  ["Cc1ccc(N[C@H]2C[C@@H](C)N(C(=O)c3ccccc3C(F)(F)F)c3ccc(C)cc32)cc1", "Ecdysone receptor (Aedes aegypti)", 0.0],
  ["Cc1ccc(N[C@H]2C[C@@H](C)N(C(=O)c3ccc(Cl)cc3)c3ccc(C)cc32)cc1", "Ecdysone receptor (Aedes aegypti)", 0.0]
]}

====

- targetOrTestSystem: UniProt P49880
- methodNotes: Ratio of maximal ecdysone-dependent transactivation in cell line expressing Aedes aegypti ecdysone receptor compared to cpd2
- Assay type: functional
observable: Rel Max FI

{"columns": ["smi", "testResult"],
 "data": [
  ["Cc1ccc(N[C@H]2C[C@@H](C)N(C(=O)c3ccccc3C)c3ccc(C)cc32)cc1", 0.04],
  ["C[C@@H]1C[C@H](Nc2ccc(F)cc2)c2cc(F)ccc2N1C(=O)c1ccccc1C(F)(F)F", 0.32],
  ["Cc1ccc(N[C@H]2C[C@@H](C)N(C(=O)c3ccc(C)cc3)c3ccc(C)cc32)cc1", 0.26],
  ["Cc1ccc(N[C@H]2C[C@@H](C)N(C(=O)c3ccccc3C(F)(F)F)c3ccc(C)cc32)cc1", 0.04],
  ["C[C@@H]1C[C@H](Nc2ccc(F)cc2)c2cc(F)ccc2N1C(=O)c1cccc(F)c1", 0.57],
  ["COc1cccc(C(=O)N2c3ccc(F)cc3[C@@H](Nc3ccc(F)cc3)C[C@H]2C)c1", 0.98],
  ["Cc1ccc(N[C@H]2C[C@@H](C)N(C(=O)c3ccccc3F)c3ccc(C)cc32)cc1", 0.01],
  ["Cc1ccc(N[C@H]2C[C@@H](C)N(C(=O)c3cccc(F)c3)c3ccc(C)cc32)cc1", 0.27],
  ["Cc1cccc(C(=O)N2c3ccc(F)cc3[C@@H](Nc3ccc(F)cc3)C[C@H]2C)c1", 0.55],
  ["C[C@@H]1C[C@H](Nc2ccc(F)cc2)c2cc(F)ccc2N1C(=O)c1ccccc1", 0.76],
  ["C[C@@H]1C[C@H](Nc2ccccc2)c2ccccc2N1C(=O)c1ccc(Cl)cc1", 0.43],
  ["Cc1ccc(N[C@H]2C[C@@H](C)N(C(=O)c3ccccc3)c3ccc(C)cc32)cc1", 0.19],
  ["Cc1ccc(C(=O)N2c3ccccc3[C@@H](Nc3ccccc3)C[C@H]2C)cc1", 0.42],
  ["COc1cccc(C(=O)N2c3ccccc3[C@@H](Nc3ccccc3)C[C@H]2C)c1", 0.15],
  ["COc1ccccc1C(=O)N1c2ccc(F)cc2[C@@H](Nc2ccc(F)cc2)C[C@H]1C", 0.01],
  ["Cc1ccccc1C(=O)N1c2ccc(F)cc2[C@@H](Nc2ccc(F)cc2)C[C@H]1C", 0.5],
  ["C[C@@H]1C[C@H](Nc2ccc(F)cc2)c2cc(F)ccc2N1C(=O)c1ccccc1F", 0.28],
  ["C[C@@H]1C[C@H](Nc2ccccc2)c2ccccc2N1C(=O)c1cccc(C(F)(F)F)c1", 0.42],
  ["C[C@@H]1C[C@H](Nc2ccc(F)cc2)c2cc(F)ccc2N1C(=O)c1cccc(C(F)(F)F)c1", 0.93]
]}

====

- targetOrTestSystem: Ecdysone receptor (Aedes aegypti, UniProt P49880)
- methodNotes: Effective concentration for ecdysone-dependent transactivation in mammalian cell line expressing Aedes aegypti ecdysone receptor
pEC50: −log10 of the molar value.

{"columns": ["smi", "targetOrTestSystem", "pEC50"],
 "data": [
  ["C[C@@H]1C[C@H](Nc2ccccc2)c2ccccc2N1C(=O)c1cccc(F)c1", "Ecdysone receptor (Aedes aegypti, UniProt P49880)", 6.12],
  ["C[C@@H]1C[C@H](Nc2ccc(F)cc2)c2cc(F)ccc2N1C(=O)c1cccc(C(F)(F)F)c1", "Ecdysone receptor (Aedes aegypti, UniProt P49880)", 6.00],
  ["C[C@@H]1C[C@H](Nc2ccccc2)c2ccccc2N1C(=O)c1ccccc1", "Ecdysone receptor (Aedes aegypti, UniProt P49880)", 5.95],
  ["COc1cccc(C(=O)N2c3ccccc3[C@@H](Nc3ccccc3)C[C@H]2C)c1", "Ecdysone receptor (Aedes aegypti, UniProt P49880)", 6.15],
  ["C[C@@H]1C[C@H](Nc2ccccc2)c2ccccc2N1C(=O)c1ccc(Cl)cc1", "Ecdysone receptor (Aedes aegypti, UniProt P49880)", 6.01],
  ["COc1ccc(C(=O)N2c3ccc(F)cc3[C@@H](Nc3ccc(F)cc3)C[C@H]2C)cc1", "Ecdysone receptor (Aedes aegypti, UniProt P49880)", 5.94],
  ["Cc1cccc(C(=O)N2c3ccc(F)cc3[C@@H](Nc3ccc(F)cc3)C[C@H]2C)c1", "Ecdysone receptor (Aedes aegypti, UniProt P49880)", 5.87],
  ["COc1cccc(C(=O)N2c3ccc(F)cc3[C@@H](Nc3ccc(F)cc3)C[C@H]2C)c1", "Ecdysone receptor (Aedes aegypti, UniProt P49880)", 5.83],
  ["C[C@@H]1C[C@H](Nc2ccc(F)cc2)c2cc(F)ccc2N1C(=O)c1cccc(F)c1", "Ecdysone receptor (Aedes aegypti, UniProt P49880)", 6.00],
  ["C[C@@H]1C[C@H](Nc2ccccc2)c2ccccc2N1C(=O)c1cccc(C(F)(F)F)c1", "Ecdysone receptor (Aedes aegypti, UniProt P49880)", 5.92],
  ["C[C@@H]1C[C@H](Nc2ccccc2)c2ccccc2N1C(=O)c1ccc(C(F)(F)F)cc1", "Ecdysone receptor (Aedes aegypti, UniProt P49880)", 5.93],
  ["COc1ccc(C(=O)N2c3ccccc3[C@@H](Nc3ccccc3)C[C@H]2C)cc1", "Ecdysone receptor (Aedes aegypti, UniProt P49880)", 5.84]
]}
